src = paper PMC4755828

assay: Intracellular concentration by LC-MS/MS; format: in vitro ADME; conditions: human, PC3 cells
pEC50: −log10 of the molar value. Square brackets hold non-standard residues; d marks the D form. Peptide text beside a SMILES is read from it. * marks the point of attachment. Benzoyl(4-tBu) = CC(C)(C)c1ccc(C(=O)*)cc1; Lys(Et2) = CCN(CC)CCCC[C@H](N)C(=O)O

{"columns": ["molecule", "pEC50"],
 "data": [
  ["CCN(CC)CCCC[C@H](NC(=O)[C@H](CC(C)C)NC(=O)[C@H](C)NC(=O)[C@H](Cc1ccccc1)NC(=O)c1ccc(C(C)(C)C)cc1)C(=O)N[C@@H](CO)C(=O)OC [UNC3866] ({Benzoyl(4-tBu)}-FAL[Lys(Et2)]S-OMe)", 6.47]
]}
